meta.source: PubChem BioAssay (NCATS)

experiment: S16 Schwann cell PMP22 intronic element beta-lactamase assay (AID 624044); conditions: S16 rat Schwann cells, PMP22 element beta-lactamase FRET, 24 h; series mostly up to 38.3 µM; also: nearly all actives have a fitted effect of over 15% in size
Records with an inconclusive call do not appear. Active and inactive are the calls of the source. Calls follow the shape of the full dose curve.
Outcome field: choose from active, inactive

How did this test come out for `Cc1ccc(N=CN(C)C=Nc2ccc(C)cc2C)c(C)c1` ?
inactive

How did this test come out for `CCN(CC)CCOC(=O)C(C)(c1ccccc1)c1ccccc1` ?
inactive

How did this test come out for CC(Cc1ccccc1)NCc1ccccc1Cl (centres undefined) ?
inactive

How did this test come out for `Nc1ccc(N)cc1` ?
inactive

How did this test come out for `COc1ccc(CN2CCNCC2)c(OC)c1OC` ?
inactive

How did this test come out for `CC(C)(C)OC(=O)c1ncn2c1[C@@H]1CCCN1C(=O)c1c(Br)cccc1-2` ?
inactive

How did this test come out for `C#C[C@]1(O)CC[C@H]2[C@@H]3CCC4=CC(=O)CCC4=C3C=C[C@@]21CC` ?
inactive

How did this test come out for `NC(N)=NN=C(/C=C/c1ccc([N+](=O)[O-])o1)/C=C/c1ccc([N+](=O)[O-])o1` ?
active

How did this test come out for `C[C@]12C=CC(=O)C=C1CC[C@@H]1[C@@H]2CC[C@@]2(C)[C@H]1CC[C@]2(C)O` ?
inactive

How did this test come out for `O=C(O)c1nn(Cc2ccc(Cl)cc2Cl)c2ccccc12` ?
inactive

How did this test come out for `CC(C)[N+](C)(CCC(C(N)=O)(c1ccccc1)c1ccccc1)C(C)C` ?
inactive

How did this test come out for COP(=O)(OC)C(O)C(Cl)(Cl)Cl (centres undefined) ?
inactive

How did this test come out for `CCC1(CC)C(=O)NC(=O)NC1=O` ?
inactive

How did this test come out for `CNC(=O)Oc1cccc2ccccc12` ?
inactive
